Molecular target: Human prostaglandin E2 receptor 4 (EP4) (Homo sapiens, UniProt P35408)
Construct: expressed in transfected cells; host or cells: HEK293 cells transduced with EP4 BacMam virus
Sequence (P35408 whole entry): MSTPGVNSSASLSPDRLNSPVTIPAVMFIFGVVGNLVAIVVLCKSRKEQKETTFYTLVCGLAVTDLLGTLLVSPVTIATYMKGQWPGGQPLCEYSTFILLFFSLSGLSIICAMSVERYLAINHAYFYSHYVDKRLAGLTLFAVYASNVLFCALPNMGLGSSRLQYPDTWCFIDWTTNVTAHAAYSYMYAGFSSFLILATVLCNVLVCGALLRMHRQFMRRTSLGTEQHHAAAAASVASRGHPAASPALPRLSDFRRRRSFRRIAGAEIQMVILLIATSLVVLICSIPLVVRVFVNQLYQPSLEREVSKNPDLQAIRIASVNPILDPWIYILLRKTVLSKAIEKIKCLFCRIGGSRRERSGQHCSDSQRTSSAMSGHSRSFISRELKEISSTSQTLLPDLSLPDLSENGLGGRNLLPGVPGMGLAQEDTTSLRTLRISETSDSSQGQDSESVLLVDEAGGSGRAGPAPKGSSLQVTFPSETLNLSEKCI
Assay: cAMP Gs Functional Assay (HTRF cAMP dynamic-2), antagonism of PGE2
Type: cell-based
Conditions: HEK293 cells transfected with EP4 BacMam virus; PGE2 challenge at EC80 (7 nM); pIC50 converted to functional pKb with a modified Cheng Prussoff equation; read-out: Human EP4 fpKb (converted)
Please note: Ki exactly at 3 nM is no. Only values below 3 nM get yes.

Request: Below 3 nM on Ki? Entry CC(C)[C@@H](OCc1ccc(F)c(Cl)c1)C(=O)NC1(c2ccc(C(=O)O)cc2)CC1
Response: no

Request: Hi there! Is Ki for CC(C)[C@@H](OCc1cccc(OC(F)(F)F)c1)C(=O)NC1(c2ccc(C(=O)O)cc2)CC1 below 3 nM, do you know?
Response: no

Request: In plain terms, does CC(C)[C@@H](OCc1cccc(C2CC2)c1)C(=O)N[C@@H](C)c1ccc(-c2nnn[nH]2)cc1 come in under 3 nM for Ki?
Response: yes

Request: Could you please tell me whether Ki recorded for O=C(O)c1ccc(C2(NC(=O)C(OCc3cccc(OC(F)F)c3)C3CCC3)CC2)cc1 (stereo not drawn) is less than 3 nM?
Response: no

Request: Does the reported Ki of CC(C)[C@@H](OCc1ccc(F)cc1)C(=O)N[C@@H](C)c1ccc(-c2nnn[nH]2)cc1 stay below 3 nM?
Response: yes

Request: Hello, is Ki of the following compound strictly smaller than 3 nM? CC(C)[C@@H](OCc1ccc(C(F)(F)F)cc1)C(=O)N[C@@H](C)c1ccc(C(=O)NS(C)(=O)=O)cc1
Response: no

Request: For this compound, is Ki lower than 3 nM? COc1cccc(COC(C(=O)N[C@@H](C)c2ccc(C(=O)O)cc2)C(C)C)c1 (mixture of isomers)
Response: no

Request: Identify whether the compound CS(=O)(=O)c1cccc(COC(C(=O)NC2(c3ccc(C(=O)O)cc3)CC2)C2CCC2)c1 (stereo not drawn) records Ki below 3 nM.
Response: no

Request: Lab note: confirm whether the reported Ki for this compound is below 3 nM, equality not counting. compound: C[C@H](NC(=O)C(OCc1ccc(C(F)(F)F)cc1)C1CCC1)c1ccc(C(=O)O)cc1 (single isomer, unassigned) [Example 93]
Response: no

Request: Please determine if CC(C)C(OCc1cccc(C2COC2)c1)C(=O)NC1(c2ccc(C(=O)O)cc2)CC1 (single isomer, unassigned) [Example 86] is below 3 nM in terms of Ki.
Response: yes

Request: Lab note: Ki threshold 3 nM. Does this compound come in strictly under it? COCc1cccc(CO[C@@H](C(=O)NC2(c3ccc(C(=O)O)cc3)CC2)C(C)C)c1
Response: yes

Request: Please let me know if CC(C)[C@@H](OCc1ccc(C(F)(F)F)cc1)C(=O)N[C@@H](C)c1ccc(C(=O)O)cc1 shows Ki below 3 nM.
Response: yes

Request: For CC(C)[C@@H](OCc1cc(OC(F)F)ccn1)C(=O)NC1(c2ccc(C(=O)O)cc2)CC1 , is the recorded Ki below the cut-off of 3 nM?
Response: yes

Request: Determine if CC(C)[C@@H](OCc1ccc(F)cc1)C(=O)N[C@@H](C)c1ccc(C(=O)O)cc1 shows Ki strictly lower than 3 nM.
Response: no

Request: Hi there! Is Ki for CC(C)[C@H](OCc1ccc(C(F)(F)F)cc1)C(=O)N[C@@H](C)c1ccc(C(=O)O)cc1 below 3 nM, do you know?
Response: no

Request: Dear colleague, could you confirm whether Ki of CC(C)[C@@H](OCc1ccc(F)c(F)c1)C(=O)N[C@@H](C)c1ccc(C(=O)O)cc1 falls below 3 nM? Thanks.
Response: yes

Request: Determine if CC(C)[C@@H](OCc1ccnc(OC(F)F)c1)C(=O)NC1(c2ccc(C(=O)O)cc2)CC1 shows Ki strictly lower than 3 nM.
Response: yes

###

Target: Human prostaglandin E2 receptor 4 (EP4) (Homo sapiens, UniProt P35408)
Construct: expressed in transfected cells; host or cells: HEK293 cells transduced with EP4 BacMam virus
Assay: cAMP Gs Functional Assay (HTRF cAMP dynamic-2), antagonism of PGE2
Type: cell-based
Settings: HEK293 cells transfected with EP4 BacMam virus; PGE2 challenge at EC80 (7 nM); pIC50 converted to functional pKb with a modified Cheng Prussoff equation; read-out: Human EP4 fpKb (converted)
VALUE KIND: Ki

Request: Record request: Ki value, item CC(C)[C@@H](OCc1cccc(O)c1)C(=O)N[C@@H](C)c1ccc(C(=O)O)cc1
Response: > 4680 nM

Request: Please report the recorded Ki for CC(C)[C@@H](OCc1ccc(O)cc1)C(=O)N[C@@H](C)c1ccc(C(=O)O)cc1 .
Response: > 12900 nM

Request: Reported Ki for CC(C)[C@@H](OCc1cccc(C2CC2)c1)C(=O)NC1(c2ccc(C(=O)O)cc2)CC1 : what is it?
Response: > 209 nM

Request: Which measured Ki value corresponds to CC(C)[C@@H](OCc1ccc(C(F)(F)F)cc1)C(=O)N[C@@H](C)c1ccc(-c2nnn[nH]2)cc1 ?
Response: 0.501 nM

Request: Give its Ki value. Item: CC(C)[C@@H](OCc1ccc(C(F)(F)F)nc1)C(=O)NC1(c2ccc(C(=O)O)cc2)CC1
Response: 33.1 nM

Request: Could you tell me which Ki is on file for CC(C)[C@@H](OCc1ccc(C(F)F)c(F)c1)C(=O)NC1(c2ccc(C(=O)O)cc2)CC1 ?
Response: 0.339 nM

Request: Given CC(C)[C@@H](OCc1ccc(OC(F)F)cc1)C(=O)N[C@@H](C)c1ccc(C(=O)O)cc1 , state its recorded Ki.
Response: 14.5 nM

Request: Would you mind telling me what Ki value was observed for CC(C)[C@@H](OCc1ccc(F)cc1)C(=O)NC1(c2ccc(-c3nnn[nH]3)cc2)CC1 ?
Response: 6.92 nM

Request: Quick one: Ki for CC(C)[C@H](OCc1ccc(F)cc1)C(=O)N[C@@H](C)c1ccc(C(=O)O)cc1 ?
Response: > 195 nM

Request: Entry under review: CC(C)[C@@H](OCc1ccc(C(F)F)cn1)C(=O)N[C@@H](C)c1ccc(C(=O)O)cc1 . Reported Ki?
Response: 20.9 nM

Request: Look up Ki for this compound: CC(C)[C@@H](OCc1ccc(C(F)(F)F)cc1)C(=O)NC1(c2ccc(C(=O)NS(C)(=O)=O)cc2)CC1
Response: 25.7 nM

Request: Fill in the blank: the reported Ki of CC(C)[C@@H](OCc1cccc(OC(F)F)c1)C(=O)NC1(c2ccc(-c3nnn[nH]3)cc2)CC1 is ____.
Response: 0.589 nM

Request: For CC(C)[C@@H](OCc1cccc(OC(F)(F)F)c1)C(=O)N[C@@H](C)c1ccc(C(=O)O)cc1 , what is its reported Ki?
Response: 0.0955 nM

Request: Look up Ki: CC(C)[C@@H](OCc1ccc(C(F)F)cc1)C(=O)N[C@@H](C)c1ccc(C(=O)O)cc1
Response: 2.34 nM

Request: Entry CC(C)[C@@H](OCc1ccnc(OC(F)F)c1)C(=O)N[C@@H](C)c1ccc(C(=O)O)cc1 : reported Ki = ?
Response: 0.447 nM

Request: Given CC(C)[C@@H](OCc1cccc(C2CC2)c1)C(=O)NC1(c2ccc(-c3nnn[nH]3)cc2)CC1 , state its recorded Ki.
Response: 0.195 nM

Request: State the recorded Ki for this entry: CC(C)[C@@H](OCc1cccc(C2CC2)c1)C(=O)N[C@@H](C)c1ccc(C(=O)O)cc1
Response: 0.229 nM
